Where do these numbers come from? They come from PubChem BioAssay (NCI).

# Tested on: UO-31 renal
# measurement description: NCI-60 one-dose screen, 48 h
# assay context: 10 µM
This is part of a sample that, as a whole, favours compounds with a hit. Of some 83,000 tested, about 20% had one in any assay. The source made the active and inactive calls. How the source made its calls: active means growth percent below 10; inactive means the rest.
Write down one outcome, taken from True for active, False for inactive

Record excerpt, results attached:
Which outcome did this test record for the compound "CC(=O)N[C@H](C(=O)N[C@@H](CCCNC(=N)N)C(=O)N[C@@H](CCCCN)C(=O)N[C@@H](CCCNC(=N)N)C(=O)N[C@]1(C)CCCCCC/C=C\CCC[C@@](C)(C(=O)N[C@@H](CCCNC(=N)N)C(=O)N[C@@H](CCC(=O)O)C(=O)N[C@@H](CC(C)C)C(=O)N[C@H](C(=O)N[C@@H](CCC(=O)O)C(N)=O)C(C)C)NC(=O)[C@H](CCC(N)=O)NC(=O)[C@H](CC(C)C)NC(=O)[C@H](CC(C)C)NC(=O)[C@H](CCCNC(=N)N)NC(=O)[C@H](CCCNC(=N)N)NC(=O)[C@H](CC(C)C)NC1=O)C(C)C" ?
False

GET /call?item= "COc1cc(-c2nn(-c3cccc(NC(=O)NCCNC(=O)c4cccc(C(F)(F)F)c4)c3)cc2-c2ccncc2)ccc1Cl" returns the recorded outcome of this test.
False

Lab log entry: "O=S(=O)(Oc1ccc(-c2ccc3sccc3c2)cc1)c1ccccc1" — outcome as called in the assay?
False

Next:
What was the test verdict on "O=C(N/N=C/c1ccc(Cl)cc1)c1ccccc1Nc1cccc(C(F)(F)F)c1" ?
False

// return assay outcome for "Cc1cc(CCNC=O)c(C)c2c1sc1ccccc12"
False

Record lookup: outcome of this test for "CCc1ccc(-c2ccc(-n3nc(C)c4c(N)nc(Cc5ccccc5)nc43)cc2)cc1" ?
False

Each compound tested received a call. Report the one for COc1ccc(/C=C2\CCCC3=C2NC(N)=NC3c2ccc(OC)cc2)cc1 (configuration not stated) .
False

Please indicate how the test categorized "O=C(CCl)Nc1ccc(Cc2ccc(NC(=O)CCl)cc2)cc1" .
False

Outcome? "Cc1[nH]c2ccccc2c1/C=N/Nc1ncnc2sc3c(c12)CCN(CC(=O)OC(C)(C)C)C3"
False

Please let me know the test result on file for "COc1cc2c(Nc3ccc(S(N)(=O)=O)cc3)ncnc2c(OC)c1OC" .
False

Record lookup: outcome of this test for CCOC(=O)C1=CSC2=NC3=C(CCC/C3=C\c3ccc(Cl)cc3)C(c3ccc(Cl)cc3)N12 (configuration not stated) ?
False

Which outcome was entered for the compound "CCc1ccc(C2=NN(c3ccc(S(C)(=O)=O)cc3)C(=O)CC2)cc1" in this test?
False

Give the logged outcome of this assay for the following compound: "NS(=O)(=O)Oc1ccc(NC(=O)C2CCCCCC2)cc1"
False

What did this assay record as the result for "O=C(/C=C/c1cccc(B(O)O)c1)c1cccc(B(O)O)c1" ?
True

Per the assay record, what outcome was assigned to "C=CCn1c(SCC(=O)Nc2ccc(C(=O)/C=C/c3ccc(OC)cc3)cc2)nnc1-c1ccc(OC)c(OC)c1" ?
False

Hello, I am checking results. What call was entered for "CCN(CC)CCOc1ccc2c(c1O)C(=O)c1ccccc1C2=O" ?
False

So what was the verdict on "Cc1n[nH]c(C)c1N=Nc1cccc2c1C(=O)c1ccccc1C2=O" in this test?
False

----------
# Test system: OVCAR-3 ovarian
# measurement description: NCI-60 one-dose screen, 48 h (100 = growth as untreated, 0 = no growth, -100 = all killed)
# assay context: 10 µM
The panel holds about 83,000 compounds, 20% with a hit somewhere; the sample as a whole holds those more often.
Threshold 90%. growth below it: met. growth at it or above: not met.

I wonder whether "NC1=CC(=O)C(=O)c2cccnc21" has growth below 90%. Can you tell?
met

Strictly below 90% in growth? "COC(=O)c1cc2oc(/C=C3/SC(=S)N(N)C3=O)cc2n1Cc1ccccc1"
met

Here's an entry: "Cc1cn(-c2cc(F)cc(NC(=O)c3ccc(C)c(Nc4nccc(-c5cccnc5)n4)c3)c2)cn1" . Is its growth below 90%?
met

Lab note: growth threshold 90%. Does this molecule come in strictly under it? "COc1ccc(/C(C#N)=C/c2cccc(OC)c2OC)cc1"
not met

Given the entry "c1ccc2c(c1)Cc1ccccc1N2CCN1CCCCC1" , would its reported growth be below 90%?
not met

growth under 90%? Item: "C[n+]1c2ccccc2nc2ccccc21"
met

Below 90% on growth? Entry "COc1cc(-c2nn(-c3cccc(NC(=O)NCCNS(=O)(=O)c4ccc(Cl)cc4)c3)cc2-c2ccncc2)ccc1Cl"
met

Could you please tell me whether growth recorded for Cc1ccc(C(=O)C2C(=O)C3CCC2C3)cc1 (stereo unspecified) is less than 90%?
not met

Problem: For the molecule Cc1ccccc1N1C(=O)c2cc(S(N)(=O)=O)c(Cl)cc2NC1C (stereo unspecified) , is growth under 90%?
not met

Regarding "O=c1cn[nH]c2ccc(Br)cc12" , kindly confirm whether its growth is beneath 90%.
not met

Further cases:
Identify whether the molecule "COc1cc(C)ccc1Oc1nc(Nc2ccc(N3CCOCC3)cc2)ncc1NC(=O)Nc1cc(C(F)(F)F)cc(C(F)(F)F)c1" records growth below 90%.
met

Problem: For the molecule "O=C1/C=C/[C@@H](O)[C@@H]2C[C@@H](O)C[C@H]2/C=C/CCC[C@H](CCc2ccc(C(F)(F)F)cc2)O1" , is growth under 90%?
met

is_below(growth, 90%) for "O=C(Nc1ccc(OS(=O)(=O)c2ccccc2)cc1)C1CCCCC1" ?
not met

----------
# Tested on: UACC-257 melanoma
# measurement description: NCI-60 one-dose screen, 48 h
# assay context: 10 µM
About 83,000 compounds went through this panel and 20% of them were active in at least one assay; those are over-represented in the sample as a whole. Activity calls are given as the source filed them. How the source made its calls: active means growth percent below 10; inactive means the rest.
Answer with one of the outcomes given here: active, inactive

// known answers, use as guide
// outcome(item) with item = COc1ccc(/C=C2\CCCC3=C2N=C2SC(C)=CN2C3c2ccc(OC)cc2)cc1 (centres undefined)
inactive

State the result this test recorded for "C/C(=N\O)c1ccc(NC(=O)CSc2nnc(-c3ccccc3)n2-c2ccccc2)cc1" .
inactive

Which outcome was entered for the compound "O=C(N/N=C/c1ccc([N+](=O)[O-])cc1)c1ccccc1Nc1cccc(C(F)(F)F)c1" in this test?
inactive

We now examine a further compound.
Which outcome was entered for the compound "COc1ccc(-c2nn(-c3cccc(Cl)c3)cc2/C=C2\NC(=S)N(c3ccc(Cl)cc3)C2=O)cc1" in this test?
active

----------
# Tested on: IGROV1 ovarian
# measurement description: NCI-60 one-dose screen, 48 h (100 = growth as untreated, 0 = no growth, -100 = all killed)
# assay context: 10 µM
Compounds without any hit were thinned out: in the full panel of roughly 83,000, 20% have a hit.
measured quantity: growth (%)
Give the value, in units of %, as a plain number.

Solved cases below.
Reported growth for "Cc1nn(-c2ccc(-c3ccc(OC(F)(F)F)cc3)cc2)c2nc(Cc3ccccc3)nc(N)c12" : what is it?
47.3

Return reported growth; argument: "c1ccc2c(c1)Cc1ccccc1N2CCN1CCCCC1"
83.5

Next:
What does the record list as growth for "COc1ccc(-c2cc(-c3ccccc3)nc(SCCCC(=O)NO)n2)cc1" ?
-32.6

----------
Catalogue of growth readings, one per entry.
# System: MOLT-4 leukemia
# measurement description: NCI-60 one-dose screen, 48 h (100 = growth as untreated, 0 = no growth, -100 = all killed)
# assay context: 10 µM
This is part of a sample that, as a whole, favours compounds with a hit. Of some 83,000 tested, about 20% had one in any assay.
Record the value in %, omitting the unit from your answer.

# annotated cases, reported growth shown
Value wanted: growth (MOLT-4 leukemia) of entry "CN(C)CCCSc1ccccc1NC1=C(Cl)C(=O)C(Nc2ccccc2SCCCN(C)C)=C(Cl)C1=O"
-34

Record "O=C(O)c1ccc(-n2cc(CNc3ccc(Oc4ccccc4)cc3)c(-c3ccccc3)n2)cc1" : what is its growth with MOLT-4 leukemia?
-4.16

Find growth (MOLT-4 leukemia) for the entry "CCCCC/C=C/C/C=C/CCCCCCCC1=NC(C)(C)CN1C(C)C"
1.44

Request - read-out growth | tested on MOLT-4 leukemia | compound "Cc1cc(C)nc(NS(=O)(=O)c2ccc(Nc3nc4nc(NCc5ccccc5)nc(-c5ccc(O)cc5)c4c(=O)[nH]3)cc2)n1"
-1.75

Record lookup: for MOLT-4 leukemia, what growth belongs to "O=C(Nc1ccc(OCc2nnc(-c3ccc(Cl)cc3)o2)c(F)c1)Nc1ccc(Cl)c(C(F)(F)F)c1" ?
-1.55

API: value(readout=growth, system=MOLT-4 leukemia) for record "Nc1cc(-c2ccncc2)c[nH]c1=O"
77.4

Further cases:
Query growth on MOLT-4 leukemia for "COc1ccc(-c2nn(-c3cccc(Cl)c3)cc2-c2c(C#N)c(=O)n3[nH]c(-c4ccccc4)nc3c2C#N)cc1"
61.6

Item: "CN(C)CCOc1ccccc1NC1=C(Cl)C(=O)C(Nc2ccccc2OCCN(C)C)=C(Cl)C1=O" Test system: MOLT-4 leukemia Read-out: growth Value: ?
-32.4
